Test system: A549
Assay: NCI tumour cell line growth inhibition, 48 h
Activity calls are given as the source filed them. Cut-off read from the data, not from the text of the source: active = GI50 up to about 1.1 µM and inactive = higher.
Lab note: assign the record to one of 1 (yes) = active, 0 (no) = inactive

Observe how each entry below is paired with its result.
MOLECULE	ASSIGNED_CATEGORY
CC(=O)Oc1ccc2c(c1OC(C)=O)CCC1C2=CC[C@]2(C)C(=O)CCC12 (some centres undefined)	0 (no)
Cc1ccc(S(=O)(=O)NC(=O)NCC(=O)NCC(=O)O)cc1	0 (no)
Cc1[nH]c2ncn3ncnc3c2c1Cc1ccccc1	0 (no)
Cc1cccc2c(N)c3cccc(C(=O)NCC[N+](C)(C)[O-])c3nc12	0 (no)
CN(C)c1ccc(-c2[nH]c(=O)c3ccccc3[n+]2C)cc1	0 (no)
COc1ccc(C(=O)C(c2ccc(OC)cc2)C2OC(=O)C(Cl)=C2Cl)cc1 (centres undefined)	0 (no)
Cc1cccc(C)c1NC(=O)C(=O)Cc1nc2ccccc2s1	0 (no)
COc1cc(C2C3=C(COC3=O)Oc3cc4c(cc32)OCO4)cc(OC)c1O (centres undefined)	1 (yes)
CC(C)=CCNc1ncnc2c1ncn2CCC(=O)O	0 (no)
[O-][n+]1c2cccc(O)c2[n+]([O-])c2cccc(O)c21	0 (no)

*Q* Please share the test call associated with CC1CNC(c2ccc(COc3ccc(C4=NC(C)CN4)cc3)cc2)=N1 (centres undefined) .
*A* 0 (no)

*Q* // return assay outcome for O=C(O)/C(Cl)=C(/Cl)C(=O)Nc1cccc(Cl)c1
*A* 0 (no)
